Assay: Acute toxicity, oral
Details: rat, in vivo, rats
Source text: The acute toxicity thereof was investigated by orally administering the compounds of Formula (I) to rats and they were confirmed to be highly safe. Compound A was orally administered to rats to determine the acute toxicity thereof.
measurement.type: LD50

So what does the record say about LD50 for COc1ccc(OCCCN(C)CCOc2ccc3c(c2)OCO3)c(C2Sc3ccccc3N(C)C2=O)c1 (single isomer, unassigned; (+)) [Compound A] ?
293 mg/kg

Measured values drawn from patent US5182276A for this set.
